Reference for the values: patent US20130012432A1

- Measurement notes: physchem
- Test parameters: pH 7.4, Solubility Conc., pH 7.4; vehicle 10 mM phosphate
Positions of bridges follow the written chain, without caps; N, C: chain ends. Non-standard residues stand in square brackets, D forms with d. Residues, ends and D or L forms follow the SMILES beside them. *: point of attachment. Lys(CH2CO2H)2 = N[C@@H](CCCCN(CC(=O)O)CC(=O)O)C(=O)O; X1 = O=C(O)CCCCCCCCCCCCCCCCC(=O)NCCOCCOCCN*; Dab = NCC[C@H](N)C(=O)O
Would you mind telling me the reported solubility of each entry?
Field note: include the unit after the figure.

Entry under test: CC(=O)N[C@H]1CCNC(=O)C[C@@H](C(=O)N2CCC[C@H]2C(=O)N[C@@H](CO)C(=O)N[C@@H](CO)C(=O)N[C@@H](CO)C(=O)N[C@@H](CCCCN(CC(=O)O)CC(=O)O)C(=O)N[C@@H](CO)C(=O)N[C@@H](CO)C(=O)NCCOCCOCCNC(=O)CCCCCCCCCCCCCCCCC(=O)O)NC(=O)[C@H](Cc2c[nH]c3ccccc23)NC(=O)[C@H](CCCNC(=N)N)NC(=O)[C@@H](Cc2ccccc2)NC(=O)[C@H](Cc2c[nH]cn2)NC1=O [Example 3] (Ac-[Dab]H[dF]RWDPSSS[Lys(CH2CO2H)2]SS-X1; lactam 1-6) . Its solubility was 396 µM

Entry under test: CC(=O)N[C@H]1CCCCNC(=O)C[C@@H](C(=O)N2CCC[C@H]2C(=O)N[C@@H](CO)C(=O)N[C@@H](CO)C(=O)N[C@@H](CO)C(=O)N[C@@H](CCCCN(CC(=O)O)CC(=O)O)C(=O)N[C@@H](CO)C(=O)N[C@@H](CO)C(=O)NCCOCCOCCNC(=O)CCCCCCCCCCCCCCCCC(=O)O)NC(=O)[C@H](Cc2c[nH]c3ccccc23)NC(=O)[C@H](CCCNC(=N)N)NC(=O)[C@@H](Cc2ccccc2)NC(=O)[C@H](Cc2c[nH]cn2)NC1=O [Example 53] (Ac-KH[dF]RWDPSSS[Lys(CH2CO2H)2]SS-X1; lactam 1-6) . Its solubility was 410 µM

---

- Measurement notes: physchem
- Test parameters: pH 5.8, Solubility Conc.
Positions of bridges follow the written chain, without caps; N, C: chain ends. Non-standard residues stand in square brackets, D forms with d. Residues, ends and D or L forms follow the SMILES beside them. Groups on a side chain read outwards from the residue. *: point of attachment. Lys(CH2CO2H)2 = N[C@@H](CCCCN(CC(=O)O)CC(=O)O)C(=O)O; C16 diacid = O=C(O)CCCCCCCCCCCCCCC(=O)*; hCys = N[C@@H](CCS)C(=O)O; AEEA = NCCOCCOCC(=O)O
Parameter measured: solubility (µM)
Give the value, in units of µM, as a plain number.

Entry under test: CC(=O)N[C@H]1CCSSC[C@@H](C(=O)N2CCC[C@H]2C(=O)N2CCC[C@H]2C(=O)N[C@@H](CO)C(=O)N[C@@H](CCC(=O)O)C(=O)N[C@@H](CCCCN(CC(=O)O)CC(=O)O)C(=O)N[C@@H](CCCCNC(=O)COCCOCCNC(=O)CCCCCCCCCCCCCCC(=O)O)C(N)=O)NC(=O)[C@H](Cc2c[nH]c3ccccc23)NC(=O)[C@H](CCCNC(=N)N)NC(=O)[C@@H](Cc2ccccc2)NC(=O)[C@H](Cc2c[nH]cn2)NC1=O [Example 70] (Ac-[hCys]H[dF]RWCPPSE[Lys(CH2CO2H)2]K([AEEA-C16 diacid])-NH2; disulfide 1-6) . Its solubility was 210
